Target: ARK5 (h) (Homo sapiens, UniProt O60285)
Sequence (O60285 1-661): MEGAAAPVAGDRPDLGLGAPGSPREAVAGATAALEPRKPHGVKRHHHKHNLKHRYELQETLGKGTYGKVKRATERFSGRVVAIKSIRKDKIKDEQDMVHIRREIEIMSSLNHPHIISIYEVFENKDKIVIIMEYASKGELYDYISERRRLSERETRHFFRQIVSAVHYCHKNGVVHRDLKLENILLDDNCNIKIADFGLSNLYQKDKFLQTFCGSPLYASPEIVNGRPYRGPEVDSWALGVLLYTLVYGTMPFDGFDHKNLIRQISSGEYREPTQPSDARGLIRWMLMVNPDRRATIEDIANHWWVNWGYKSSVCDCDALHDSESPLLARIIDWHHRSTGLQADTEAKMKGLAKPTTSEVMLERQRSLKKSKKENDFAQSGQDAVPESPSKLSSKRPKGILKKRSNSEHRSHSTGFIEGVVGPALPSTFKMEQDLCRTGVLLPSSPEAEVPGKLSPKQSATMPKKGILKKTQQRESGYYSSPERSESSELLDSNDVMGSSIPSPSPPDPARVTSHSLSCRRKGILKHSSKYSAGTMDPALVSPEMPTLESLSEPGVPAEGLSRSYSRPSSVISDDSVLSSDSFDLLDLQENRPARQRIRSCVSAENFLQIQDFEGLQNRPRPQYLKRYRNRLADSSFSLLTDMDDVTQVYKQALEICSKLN
Test: Kinase Profiling Assay
Assay type: biochemical
Conditions: 100 μM
VALUE_KIND: % activity (%)

| SEQUENCE_ENTRY | UNIT_OF_MEASURE | OBS_VALUE |
| --- | --- | --- |
| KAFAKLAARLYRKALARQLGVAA [MMI-0400] | % | 69 |
| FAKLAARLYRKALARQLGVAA [MMI-0300] | % | 78 |
| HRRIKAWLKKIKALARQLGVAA (Mammalian) [MMI-0500] | % | 20 |
| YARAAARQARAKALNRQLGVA (Mammalian) [MMI-0200] | % | 93 |

###

Examples of sequences with documented % activity follow.
Biological target: DMPK (h) (Homo sapiens, UniProt Q09013)
Construct: purchased Millipore
Sequence (Q09013 1-629): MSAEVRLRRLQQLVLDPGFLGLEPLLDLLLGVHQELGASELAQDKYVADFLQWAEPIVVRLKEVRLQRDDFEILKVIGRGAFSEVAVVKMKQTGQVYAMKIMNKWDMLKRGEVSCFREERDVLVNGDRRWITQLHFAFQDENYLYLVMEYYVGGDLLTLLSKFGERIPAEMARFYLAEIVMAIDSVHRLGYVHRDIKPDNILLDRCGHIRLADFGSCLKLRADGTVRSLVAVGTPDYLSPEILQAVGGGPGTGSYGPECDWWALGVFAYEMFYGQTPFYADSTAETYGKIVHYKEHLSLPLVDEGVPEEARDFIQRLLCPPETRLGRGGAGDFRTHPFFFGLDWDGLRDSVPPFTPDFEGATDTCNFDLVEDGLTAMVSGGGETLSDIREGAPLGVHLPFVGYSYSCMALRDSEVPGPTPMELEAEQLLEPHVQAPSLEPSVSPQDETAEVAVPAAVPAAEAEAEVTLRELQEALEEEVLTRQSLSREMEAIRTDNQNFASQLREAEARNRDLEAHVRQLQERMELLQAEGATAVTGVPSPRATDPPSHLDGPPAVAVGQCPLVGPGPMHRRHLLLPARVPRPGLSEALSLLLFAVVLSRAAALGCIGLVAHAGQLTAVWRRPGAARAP
Experiment: Kinase Profiling Assay
Format: biochemical
Settings: 100 μM

| SEQUENCE_ENTRY | UNIT_OF_MEASURE | % activity |
| --- | --- | --- |
| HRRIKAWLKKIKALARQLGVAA (Mammalian) [MMI-0500] | % | 12 |
| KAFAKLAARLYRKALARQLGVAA [MMI-0400] | % | 54 |
| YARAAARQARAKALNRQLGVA (Mammalian) [MMI-0200] | % | 66 |
| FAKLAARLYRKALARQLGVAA [MMI-0300] | % | 59 |
